target: fixed activated platelets (Homo sapiens, UniProt P05106+P08514); experiment: Platelet Aggregation Assay (fibrinogen-mediated aggregation of fixed-activated platelets); assay type: cell-based; conditions: fixed activated platelets, human fibrinogen 250 μg/ml; read-out: Inhibition of Fibrinogen Mediated Platelet Aggregation IC50
Sequence (P08514 32-1039): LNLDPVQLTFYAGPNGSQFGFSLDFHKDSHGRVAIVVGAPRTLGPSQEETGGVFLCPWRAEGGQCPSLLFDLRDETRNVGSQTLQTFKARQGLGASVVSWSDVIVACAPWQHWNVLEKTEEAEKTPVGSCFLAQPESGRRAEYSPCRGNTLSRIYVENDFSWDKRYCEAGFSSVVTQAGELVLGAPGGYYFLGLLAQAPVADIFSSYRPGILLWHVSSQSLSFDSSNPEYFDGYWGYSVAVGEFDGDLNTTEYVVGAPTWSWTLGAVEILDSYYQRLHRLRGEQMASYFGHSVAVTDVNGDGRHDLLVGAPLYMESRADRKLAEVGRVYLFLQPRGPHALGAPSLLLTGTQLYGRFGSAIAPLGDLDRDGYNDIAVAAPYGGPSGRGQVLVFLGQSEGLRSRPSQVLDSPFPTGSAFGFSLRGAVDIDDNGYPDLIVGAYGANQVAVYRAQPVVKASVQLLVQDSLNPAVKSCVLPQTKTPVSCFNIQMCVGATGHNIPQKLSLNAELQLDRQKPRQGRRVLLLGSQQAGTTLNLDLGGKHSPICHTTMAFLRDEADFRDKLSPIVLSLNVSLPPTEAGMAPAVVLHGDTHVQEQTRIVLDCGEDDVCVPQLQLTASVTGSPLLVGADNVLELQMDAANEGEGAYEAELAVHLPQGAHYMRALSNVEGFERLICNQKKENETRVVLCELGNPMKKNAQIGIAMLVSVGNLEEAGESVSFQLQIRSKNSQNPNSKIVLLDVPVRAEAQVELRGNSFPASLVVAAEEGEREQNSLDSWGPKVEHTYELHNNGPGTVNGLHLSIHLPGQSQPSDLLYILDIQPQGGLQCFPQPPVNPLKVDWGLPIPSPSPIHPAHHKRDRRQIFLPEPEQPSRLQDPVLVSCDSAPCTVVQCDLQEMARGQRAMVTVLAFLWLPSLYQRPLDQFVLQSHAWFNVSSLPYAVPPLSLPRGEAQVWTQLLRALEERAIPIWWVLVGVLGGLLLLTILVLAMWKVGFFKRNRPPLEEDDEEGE
Sequence (P05106 27-788): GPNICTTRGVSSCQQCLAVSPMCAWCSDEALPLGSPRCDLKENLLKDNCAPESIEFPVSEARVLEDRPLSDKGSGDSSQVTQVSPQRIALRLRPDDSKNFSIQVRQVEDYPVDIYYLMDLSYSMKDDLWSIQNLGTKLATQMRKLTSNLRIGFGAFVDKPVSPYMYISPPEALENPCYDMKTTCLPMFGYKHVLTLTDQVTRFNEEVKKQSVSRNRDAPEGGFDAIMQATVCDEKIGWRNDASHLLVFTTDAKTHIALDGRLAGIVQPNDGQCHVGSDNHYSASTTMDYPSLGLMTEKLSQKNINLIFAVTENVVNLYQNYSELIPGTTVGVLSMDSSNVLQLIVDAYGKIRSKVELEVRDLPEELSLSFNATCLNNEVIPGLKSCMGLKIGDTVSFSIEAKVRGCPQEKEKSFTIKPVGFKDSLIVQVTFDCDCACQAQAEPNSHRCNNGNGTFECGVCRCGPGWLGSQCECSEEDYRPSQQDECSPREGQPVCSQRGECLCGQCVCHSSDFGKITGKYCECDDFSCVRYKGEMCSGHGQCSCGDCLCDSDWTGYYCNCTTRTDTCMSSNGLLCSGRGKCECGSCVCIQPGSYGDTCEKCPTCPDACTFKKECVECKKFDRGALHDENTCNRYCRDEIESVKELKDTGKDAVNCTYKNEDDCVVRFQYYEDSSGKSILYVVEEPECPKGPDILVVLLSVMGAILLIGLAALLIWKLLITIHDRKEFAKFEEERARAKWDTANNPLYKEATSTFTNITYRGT
Non-standard residues stand in square brackets, D forms with d. Residues, ends and D or L forms follow the SMILES beside them. NMeV = CN[C@H](C(=O)O)C(C)C
MEASUREMENT_NAME: log10 IC50 (log10 of the value in nM)

compound=CN(CC(=O)N[C@@H](CC(=O)O)C(=O)N[C@@H](Cc1c[nH]c2ccccc12)C(=O)O)C(=O)CCCCCNC(=N)N readout_number=3.82
compound="CC(C)[C@@H](C(=O)O)N(C)C(=O)[C@H](CC(=O)O)NC(=O)CNC(=O)[C@@H](N)CCCNC(=N)N (H-RGD[NMeV]-OH)" readout_number=5.20
compound=CC(C)[C@H](NC(=O)[C@H](CC(=O)O)NC(=O)CNC(=O)CCCCCCNC(=N)N)C(=O)O readout_number=4.32
compound="N=C(N)NCCCCCCCC(=O)N[C@@H](CC(=O)O)C(=O)N[C@@H](CCCNC(=N)N)C(=O)O [8-Guanidinooctanoyl-L-aspartyl-arginine]" readout_number=3.34
compound=CCN(CC(=O)N[C@@H](CC(=O)O)C(=O)N[C@H](C(=O)O)C(C)C)C(=O)CCCNC(=N)N readout_number=3.43
compound=CCN(CC(=O)N[C@@H](CC(=O)O)C(=O)N[C@H](C(=O)O)C(C)C)C(=O)CCCCNC(=N)N readout_number=2.80
compound="CC(C)[C@H](NC(=O)[C@H](CC(=O)O)NC(=O)CCCCCCCCCNC(=N)N)C(=O)O [10-Guanidinodecanoyl-L-aspartyl-L-valine]" readout_number=4.01
compound=CCCCOC(=O)[C@@H](NC(=O)[C@H](CC(=O)O)NC(=O)CN(C)C(=O)CCCCCNC(=N)N)C(C)C readout_number=3.65
compound=CC(C)(C)[C@H](NC(=O)[C@H](CC(=O)O)NC(=O)CCCCCCCCNC(=N)N)C(=O)N[C@@H](CCCNC(=N)N)C(=O)O readout_number=3.18
compound=CC(C)CCOC(=O)[C@H](CCCNC(=N)N)NC(=O)[C@H](CC(=O)O)NC(=O)CCCCCCCCNC(=N)N readout_number=3.23
compound=N=C(N)NCCCCCCCCC(=O)N[C@@H](CC(=O)O)C(=O)N[C@@H](CCCNC(=N)N)C(=O)OC1CCCCC1 readout_number=2.91
compound=CCN(CC(=O)N[C@@H](CC(=O)O)C(=O)N[C@@H](Cc1ccccc1)C(=O)O)C(=O)CCCCCNC(=N)N readout_number=3.11
compound=N=C(N)NCCCCCCCC(=O)N[C@@H](CC(=O)O)C(=O)N[C@@H](Cc1ccccc1)C(=O)O readout_number=2.84
compound=CC(C)CNC(=O)[C@H](CCCNC(=N)N)NC(=O)[C@H](CC(=O)O)NC(=O)CCCCCCCCNC(=N)N readout_number=3.34
compound=CC[C@H](C)[C@H](NC(=O)[C@H](CCCNC(=N)N)NC(=O)[C@H](CC(=O)O)NC(=O)CCCCCCCCNC(=N)N)C(=O)O readout_number=3.38
compound=N=C(N)NCCCCC(=O)NCC(=O)N[C@@H](CC(=O)O)C(=O)N1CCc2ccccc2C1 readout_number=4.31
compound=C[C@H](NC(=O)[C@H](CC(=O)O)NC(=O)CCCCCCCCNC(=N)N)C(=O)N[C@@H](CCCNC(=N)N)C(=O)O readout_number=2.73
compound=CC(C)[C@H](NC(=O)[C@H](CC(=O)O)NC(=O)CN(C)C(=O)CCCCCNC(=N)N)C(=O)O readout_number=2.80
compound=CCN(CC(=O)N[C@@H](CC(=O)O)C(=O)N[C@@H](Cc1c[nH]c2ccccc12)C(=O)O)C(=O)CCCCCNC(=N)N readout_number=3.11
compound=CC(C)[C@H](NC(=O)[C@H](CC(=O)O)NC(=O)CCCCCCCCn1ccnc1)C(=O)O readout_number=3.53
compound=N=C(N)NCCCCCC=CC(=O)N[C@@H](CC(=O)O)C(=O)N[C@@H](CCCNC(=N)N)C(=O)O readout_number=2.80
compound=CC[C@H](C)[C@H](NC(=O)[C@H](CC(=O)O)NC(=O)CCCCCCCCNC(=N)N)C(=O)NCCCCNC(=N)N readout_number=3.76
compound=CC(C)[C@H](NC(=O)[C@H](CC(=O)O)NC(=O)CN(Cc1ccccc1)C(=O)CCCCCNC(=N)N)C(=O)O readout_number=3.76
compound="CC(C)C[C@H](NC(=O)[C@H](CC(=O)O)NC(=O)CCCCCCCCNC(=N)N)C(=O)O [9-guanidinononanoyl-L-aspartyl-L-leucine]" readout_number=2.77
compound=CC[C@H](C)[C@H](NC(=O)[C@H](CC(=O)O)NC(=O)CCCCCCCCNC(=N)N)C(=O)O readout_number=3.62
compound=CCN(CC(=O)N[C@@H](CC(=O)O)C(=O)N[C@@H](CCCNC(=N)N)C(=O)O)C(=O)CCCCNC(=N)N readout_number=2.36
compound=CCN(CC(=O)N[C@@H](CC(=O)O)C(=O)N[C@@H](CCCNC(=N)N)C(=O)O)C(=O)CCCCCNC(=N)N readout_number=3.15
compound="CC(C)[C@H](NC(=O)[C@H](CC(=O)O)NC(=O)CCCCCCCCNC(=N)N)C(=O)O [9-guanidinononanoyl-L-aspartyl-L-valine]" readout_number=3.23
compound=CCN(CC(=O)N[C@@H](CC(=O)O)C(=O)N[C@@H](Cc1ccc(O)cc1)C(=O)O)C(=O)CCCCCNC(=N)N readout_number=3.10
compound=CC[C@@H](C)[C@@H](NC(=O)[C@H](CC(=O)O)NC(=O)CCCCCCCCNC(=N)N)C(=O)N[C@@H](CCCNC(=N)N)C(=O)O readout_number=4.12
